Reported furin cleavage Z-score values for the following sequences.
target: furin, P09958; experiment: furin cleavage Z-score vs untreated control; higher = more cleavage, active = 3.5 or more, inactive = 1 or less, 8 variable residues between constant flanks; details: 7.5 min;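 also: purified furin at 1:10 enzyme:substrate in 50 mM HEPES pH 7.5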
Sequence (P09958 whole entry): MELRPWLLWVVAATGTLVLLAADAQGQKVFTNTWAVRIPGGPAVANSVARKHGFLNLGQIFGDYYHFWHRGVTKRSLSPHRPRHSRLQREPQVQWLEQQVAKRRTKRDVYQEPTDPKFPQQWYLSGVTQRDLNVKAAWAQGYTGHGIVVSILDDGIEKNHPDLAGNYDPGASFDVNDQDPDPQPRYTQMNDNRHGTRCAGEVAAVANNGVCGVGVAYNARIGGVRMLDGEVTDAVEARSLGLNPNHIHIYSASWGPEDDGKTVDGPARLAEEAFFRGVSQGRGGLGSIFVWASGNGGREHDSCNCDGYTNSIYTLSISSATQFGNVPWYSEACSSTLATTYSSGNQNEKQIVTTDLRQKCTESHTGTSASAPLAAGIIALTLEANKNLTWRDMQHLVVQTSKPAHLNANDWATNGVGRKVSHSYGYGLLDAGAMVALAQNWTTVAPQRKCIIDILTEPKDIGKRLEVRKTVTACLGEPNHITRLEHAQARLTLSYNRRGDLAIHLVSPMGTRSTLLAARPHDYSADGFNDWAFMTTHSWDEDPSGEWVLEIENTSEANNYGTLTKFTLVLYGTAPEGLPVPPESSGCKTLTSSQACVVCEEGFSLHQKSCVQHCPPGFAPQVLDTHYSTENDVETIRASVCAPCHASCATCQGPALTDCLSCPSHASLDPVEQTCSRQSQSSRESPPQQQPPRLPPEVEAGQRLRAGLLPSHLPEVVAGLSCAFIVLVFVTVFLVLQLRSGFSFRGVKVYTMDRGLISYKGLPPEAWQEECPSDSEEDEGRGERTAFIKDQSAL
The list shows a part of the results. The true hit rate is not given.
Parameter: furin cleavage Z-score

>>> print(df.to_string())
                 residue_codes           reported
0   CAVTRHADVIAGNASASA [HC727]   -0.38 (inactive)
1  CAALVVGVVCAGNASASA [HC1106]  -0.352 (inactive)
2  CAALLRTRRSAGNASASA [FS-972]      8.62 (active)
3  CATTPCSWSWAGNASASA [HC1888]   -2.26 (inactive)

Values compiled from the supplement of paper PMC3545927.
